# Assayed target: T1, p5 peptide of EGFL7 (human)
# T1 construct: also called Peptide P5
# T1 peptide: RACSTYRTIYRTA
# Experimental details: SPR (Biacore), IgG over immobilized P5 peptide at 37 C, n = 2
Outcome measure: pKd
// returns pKd (minus log10 of molar concentration), number only

# pKd of 18F7.v6A IgG (antibody, V domains shown, IgG; Variant of 18F7.v6) VH: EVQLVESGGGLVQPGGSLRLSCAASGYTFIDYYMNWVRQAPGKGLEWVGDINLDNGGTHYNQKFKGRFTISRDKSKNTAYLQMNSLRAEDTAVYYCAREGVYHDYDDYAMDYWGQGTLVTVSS VL: DIQMTQSPSSLSASVGDRVTITCRTSQSLVHISGITYLHWYQQKPGKAPKLLIYRVSNRFSGVPSRFSGSGSGTDFTLTISSLQPEDFATYYCGQSTHVPLTFGQGTKVEIK = 8.43
